Data provenance is the kinase profiling compilation of Christmann-Franck et al. (2016).

measured target: FRK (human) (UniProt P42685)
Sequence (P42685 whole entry, looked up): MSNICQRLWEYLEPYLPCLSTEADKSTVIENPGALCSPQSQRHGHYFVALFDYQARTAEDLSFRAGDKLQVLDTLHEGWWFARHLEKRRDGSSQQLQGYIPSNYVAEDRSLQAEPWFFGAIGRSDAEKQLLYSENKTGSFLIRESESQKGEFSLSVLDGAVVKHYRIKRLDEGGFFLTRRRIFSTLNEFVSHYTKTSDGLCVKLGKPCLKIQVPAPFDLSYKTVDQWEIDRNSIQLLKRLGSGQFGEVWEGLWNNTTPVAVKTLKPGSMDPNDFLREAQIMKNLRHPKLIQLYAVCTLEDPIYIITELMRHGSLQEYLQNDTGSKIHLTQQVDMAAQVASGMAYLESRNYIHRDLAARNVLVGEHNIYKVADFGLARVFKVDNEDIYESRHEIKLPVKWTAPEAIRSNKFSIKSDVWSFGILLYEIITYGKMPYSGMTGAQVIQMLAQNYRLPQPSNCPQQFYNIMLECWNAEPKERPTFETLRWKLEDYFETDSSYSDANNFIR
experiment description: KINOMEscan competition binding
assay context: compound 10.0 µM
kinase still bound, per cent of control values by entry
Enter your answer as a number in %; do not include the unit.

• N#Cc1c(NC(=O)c2cccc3ccccc23)sc2c1CCCC2 = 58
• COc1cc(N2CCN(C)CC2)ccc1Nc1nc(N)c(C(=O)c2c(Cl)cccc2Cl)s1 = 43
• C[C@@H](Oc1cc(-n2cnc3ccc(CN4CCN(C)CC4)cc32)sc1C(N)=O)c1ccccc1C(F)(F)F = 100

Q. Fill blank: measured kinase still bound, per cent of control of the compound COc1cc(C(=O)NC2CCN(C)CC2)ccc1Nc1ncc2c(n1)N(C1CCCC1)C(C)CC(=O)N2C (configuration not stated) is ____.
A. 100

Q. Now give it for CCOc1cc2ncc(C#N)c(Nc3ccc(OCc4ccccn4)c(Cl)c3)c2cc1NC(=O)/C=C/CN(C)C too.
A. 100

Q. Do the same for C=CC(=O)Nc1cc(NC(=O)c2ccc(C)c(NC(=O)c3ccno3)c2)cc(C(F)(F)F)c1 please
A. 12

Q. And O=C(NC1CC1)c1cccc(-c2ccc3c(NC(=O)C4CC4)n[nH]c3c2)c1 ?
A. 89
